System: LLC-PK1
experimentNotes: Ratio of permeability from apical to basolateral side over basolateral to apical side in pig LLC-PK1 cells expressing mouse MDR1a
Type: ADME, cell-based, Sus scrofa
What Ratio was measured for each of the following?
# print the numeric value only

# input Item under review: `Cc1cccc2nc(C)n(-c3ccc(OC4CCN(C5CCC5)CC4)cc3)c(=O)c12` . Reported Ratio?
# output 1

# input Also need `Cc1nc2cccc(C(F)(F)F)c2c(=O)n1-c1ccc(OC2CCN(C3CCC3)CC2)cc1` , thanks.
# output 2.5

# input Also need `Cc1nc2cccc(F)c2c(=O)n1-c1ccc(OC2CCN(C3CCC3)CC2)cc1` , thanks.
# output 1.8

All values here come from ChEMBL document CHEMBL1142515.
